# Tested on: FAS
# experimental.protocol: Therapeutic index, ratio of TC50 for human HLF to IC50 for rat liver FAS
# measurement.parameters: HLF cells (TC50)
parameter: selectivity ratio
Keep the answer to the number alone.

Example cases with answers are listed next.
{"molecule": "CCCCCCCCCCC[C@H]1OC(=O)C(=C(C)C)[C@@H]1C(=O)O (relative stereo)", "selectivity ratio": 5.57}
{"molecule": "CCCCCCCCCCC[C@@H]1OC(=O)c2ccccc2[C@H]1C(=O)O (relative stereo)", "selectivity ratio": 4.84}
{"molecule": "C=C1C(=O)S[C@H](CCCCCC)[C@H]1C(=O)O", "selectivity ratio": 5.76}
{"molecule": "C=C1C(=O)S[C@H](CCCCCCCC)[C@H]1C(=O)O", "selectivity ratio": 9.26}

Now look at this entry.
Data point: C=C1C(=O)O[C@H](CCCCCCCC)[C@H]1C(=O)O ; selectivity ratio = 5.61

----------
Below is a list of entries, each paired with its recorded CC50 value.
# experimental.protocol: Cytotoxicity against human HLF by MTT assay
# Format: cell-based
# measurement.parameters: HLF cells, read-out: TC50 (the source's name)

{"compound": "C=C1C(=O)S[C@H](CCCCCCCCC)[C@H]1C(=O)O", "CC50": "6.86 µM"}
{"compound": "C=C1C(=O)S[C@H](CCCCCCCC)[C@H]1C(=O)O", "CC50": "23.7 µM"}
{"compound": "C=C1C(=O)S[C@H](CCCCCCCCCCC)[C@H]1C(=O)O", "CC50": "4.75 µM"}

Entry C=C1C(=O)S[C@H](CCCCCC)[C@H]1C(=O)O , CC50 reported as 96.4 µM

The compound identified as CCCCCCCCCCC[C@H]1OC(=O)C(=C(C)C)[C@@H]1C(=O)O (relative stereo) registered its CC50 at 153 µM

CC50 reported for this compound CCCCCCCCCC[C@@H]1OC(=O)c2ccccc2[C@H]1C(=O)O (relative stereo) : > 200 µM

----------
# assay.target: Fatty acid synthase (Rattus norvegicus) (UniProt P12785)
# Sequence (P12785 whole entry): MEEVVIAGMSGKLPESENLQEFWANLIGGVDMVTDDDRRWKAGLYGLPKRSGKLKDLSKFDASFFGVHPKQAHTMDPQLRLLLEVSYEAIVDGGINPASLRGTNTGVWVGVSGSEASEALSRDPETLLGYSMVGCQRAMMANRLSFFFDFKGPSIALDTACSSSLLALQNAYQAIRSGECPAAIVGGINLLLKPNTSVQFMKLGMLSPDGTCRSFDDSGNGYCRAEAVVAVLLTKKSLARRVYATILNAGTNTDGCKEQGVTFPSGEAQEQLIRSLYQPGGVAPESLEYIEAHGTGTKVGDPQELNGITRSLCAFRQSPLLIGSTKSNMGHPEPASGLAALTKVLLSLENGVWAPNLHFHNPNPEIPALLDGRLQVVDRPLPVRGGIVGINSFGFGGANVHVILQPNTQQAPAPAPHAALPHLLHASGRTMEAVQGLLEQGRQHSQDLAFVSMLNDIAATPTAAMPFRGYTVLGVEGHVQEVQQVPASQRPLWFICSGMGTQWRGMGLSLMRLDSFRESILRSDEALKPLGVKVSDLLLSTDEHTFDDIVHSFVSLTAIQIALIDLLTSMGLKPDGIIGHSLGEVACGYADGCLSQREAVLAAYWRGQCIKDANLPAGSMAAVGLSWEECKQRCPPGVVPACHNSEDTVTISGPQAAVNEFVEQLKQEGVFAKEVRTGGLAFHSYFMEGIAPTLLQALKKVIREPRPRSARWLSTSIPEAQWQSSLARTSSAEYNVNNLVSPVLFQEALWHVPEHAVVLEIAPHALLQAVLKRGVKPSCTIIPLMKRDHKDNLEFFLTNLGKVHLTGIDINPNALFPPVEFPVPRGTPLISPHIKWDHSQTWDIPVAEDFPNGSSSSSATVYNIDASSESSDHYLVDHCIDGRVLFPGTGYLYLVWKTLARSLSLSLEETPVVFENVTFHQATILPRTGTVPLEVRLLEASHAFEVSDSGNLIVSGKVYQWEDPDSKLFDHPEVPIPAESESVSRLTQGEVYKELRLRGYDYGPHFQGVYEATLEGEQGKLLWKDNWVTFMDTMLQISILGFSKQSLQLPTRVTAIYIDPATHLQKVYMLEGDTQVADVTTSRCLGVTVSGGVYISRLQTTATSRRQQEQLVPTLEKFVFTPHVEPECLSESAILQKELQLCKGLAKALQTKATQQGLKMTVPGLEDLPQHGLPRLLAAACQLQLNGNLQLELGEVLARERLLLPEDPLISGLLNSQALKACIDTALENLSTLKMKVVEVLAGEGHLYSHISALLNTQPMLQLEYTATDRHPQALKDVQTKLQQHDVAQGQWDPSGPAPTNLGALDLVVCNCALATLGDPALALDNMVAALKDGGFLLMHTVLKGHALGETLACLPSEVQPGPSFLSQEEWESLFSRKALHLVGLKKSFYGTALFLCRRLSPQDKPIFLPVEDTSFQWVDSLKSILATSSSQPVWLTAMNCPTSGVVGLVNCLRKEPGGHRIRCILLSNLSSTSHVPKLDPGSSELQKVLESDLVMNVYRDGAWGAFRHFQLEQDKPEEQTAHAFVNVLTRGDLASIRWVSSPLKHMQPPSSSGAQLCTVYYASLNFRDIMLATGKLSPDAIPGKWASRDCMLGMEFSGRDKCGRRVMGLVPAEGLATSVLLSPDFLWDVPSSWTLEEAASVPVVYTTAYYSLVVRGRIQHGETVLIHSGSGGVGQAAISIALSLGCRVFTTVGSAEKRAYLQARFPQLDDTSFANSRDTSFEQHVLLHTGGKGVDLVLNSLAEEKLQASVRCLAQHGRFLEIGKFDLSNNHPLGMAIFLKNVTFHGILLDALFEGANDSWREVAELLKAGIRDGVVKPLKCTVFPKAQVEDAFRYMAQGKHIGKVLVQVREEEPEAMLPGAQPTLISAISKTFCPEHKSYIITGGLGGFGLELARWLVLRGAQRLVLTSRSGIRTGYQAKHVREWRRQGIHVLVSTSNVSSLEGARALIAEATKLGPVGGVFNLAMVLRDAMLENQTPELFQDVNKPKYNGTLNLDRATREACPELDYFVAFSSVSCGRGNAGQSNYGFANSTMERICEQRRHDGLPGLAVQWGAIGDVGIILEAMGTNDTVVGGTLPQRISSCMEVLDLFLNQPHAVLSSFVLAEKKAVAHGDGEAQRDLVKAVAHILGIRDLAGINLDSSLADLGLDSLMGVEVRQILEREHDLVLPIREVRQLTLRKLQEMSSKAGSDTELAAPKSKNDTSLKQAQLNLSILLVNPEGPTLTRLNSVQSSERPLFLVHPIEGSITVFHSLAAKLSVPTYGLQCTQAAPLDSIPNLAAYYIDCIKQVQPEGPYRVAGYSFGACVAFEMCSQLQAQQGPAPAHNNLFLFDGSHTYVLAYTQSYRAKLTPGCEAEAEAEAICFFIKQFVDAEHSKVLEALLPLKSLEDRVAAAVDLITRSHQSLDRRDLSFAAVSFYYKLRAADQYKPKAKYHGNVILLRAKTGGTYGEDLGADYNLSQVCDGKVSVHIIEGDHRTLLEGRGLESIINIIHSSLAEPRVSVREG
# experimental.protocol: Inhibition of rat liver FAS at 60 uM by Coomassie blue staining
In this section we review reported inhibition values for a set of compounds.
The figure you give is taken to be in %; do not add the unit.

Example results:
{"compound": "CCCCCCC[C@@H]1OC(=O)c2ccccc2[C@H]1C(=O)O (relative stereo)", "u": "%", "value.observed": 35.9}
{"compound": "CCCCCCCC[C@H]1OC(=O)C(=C(C)C)[C@@H]1C(=O)O (relative stereo)", "u": "%", "value.observed": 17.4}
{"compound": "CCCCCCCCC[C@H]1OC(=O)C(C)(C)[C@@H]1C(=O)O (relative stereo)", "u": "%", "value.observed": 23.8}
{"compound": "CCCCCCCCC[C@H]1OC(=O)C(=C(C)C)[C@@H]1C(=O)O (relative stereo)", "u": "%", "value.observed": 38.4}
{"compound": "CCCCCC[C@@H]1OC(=O)c2ccccc2[C@H]1C(=O)O (relative stereo)", "u": "%", "value.observed": 19.4}

In the following, a different compound is considered.
Consider CCCCCCCC[C@H]1OC(=O)C(C)(C)[C@@H]1C(=O)O (relative stereo) . Its measured inhibition is 16.7

----------
# experimental.protocol: Cytotoxicity against human HLF by MTT assay
# Type: cell-based
# measurement.parameters: HLF cells, read-out: TC50 (the source's name)
parameter: CC50

{"molecule": "CCCCCCCCCC[C@H]1OC(=O)C(=C(C)C)[C@@H]1C(=O)O (relative stereo)", "parameter": "CC50", "value.observed": "> 200 µM"}

Lab note: measured CC50 of CCCCCCCCCCC[C@@H]1OC(=O)c2ccccc2[C@H]1C(=O)O (relative stereo) was 94.2 µM

Per the record, C=C1C(=O)S[C@H](CCCCCCCCCC)[C@H]1C(=O)O has CC50 of 6.8 µM

----------
As an illustration, consider measured IC50 for molecules on Fatty acid synthase (Rattus norvegicus).
Sequence (P12785 whole entry): as above
Supply the numeric figure in µM, leaving out any unit text.

{"molecule": "CCCCCCCCC[C@@H]1OC(=O)c2ccccc2[C@H]1C(=O)O (relative stereo)", "IC50 [µM]": 29.8}
{"molecule": "CCCCCCCCCCC[C@@H]1OC(=O)c2ccccc2[C@H]1C(=O)O (relative stereo)", "IC50 [µM]": 19.5}
{"molecule": "CCCCCCCC[C@@H]1OC(=O)c2ccccc2[C@H]1C(=O)O (relative stereo)", "IC50 [µM]": 88.6}

// below: IC50 requested for another molecule
get_value(item= C=C1C(=O)S[C@H](CCCCCC)[C@H]1C(=O)O , readout=IC50) returns 16.7
